Values compiled from the supplement of paper PMC10567573.

B1: RBBP5 (parent)
chain: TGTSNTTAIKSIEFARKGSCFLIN

variants of: B1; experiment: protein stability index of a GFP-peptide fusion (GPS, HEK-293T) (PSI 1-6); higher = more stable; settings: c terminus: a fixed tail appended;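 note: lentivirally expressed fusions sorted by FACS into six bins by GFP to DsRed ratio, PSI derived from sequencing read proportions per bin multiplied by bin number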
# cutoff 2 applies to protein stability index; >= gives Condition met, < gives Condition not met

Solved cases (3 shown):
Has TGTSPTTAIKSIEFARKGSCFLIN [N5P] a recorded protein stability index greater than or equal to 2? Condition met

Check the entry TGTSNTTAIKSIEFARKGQCFLIN [S19Q] : does protein stability index equal or exceed 2? Condition met

Reported protein stability index at or above 2? TGTSNTTAIKSIEFAYKGSCFLIN [R16Y] Condition met

More entries:
Dear colleague, could you confirm whether TGTSWTTAIKSIEFARKGSCFLIN [N5W] has protein stability index at or above 2? Condition not met

Check this variant for protein stability index at or above 2: TGTSNTTAAKSIEFARKGSCFLIN [I9A] Condition met

Confirm if protein stability index reported for the variant MGTSNTTAIKSIEFARKGSCFLIN [T1M] is 2 or above. Condition met

Is the recorded value of protein stability index equal to or greater than 2 for this variant? TGTSNTTAIFSIEFARKGSCFLIN [K10F] Condition met
